The measured values listed here are drawn from patent US4613614A.

// reported agglutination-inhibition rate, incubation time 60 minutes per item
System: platelet agglutination (PRP, plasma rich in platelet)
Test details: Change of agglutination-inhibition rate with incubation time, fat emulsions (evaluated indirectly via c-AMP content in the platelets)
Type: cell-based, Wistar-strain male rats
Parameters: concentration or dose not given beside the values
Condition label: incubation 60 minutes; compounds in fat emulsion, sodium salt of prostaglandin I2 in aq. solution
Where a name gives a salt, the structure may show the parent alone.
Measurement name: agglutination-inhibition rate, incubation time 60 minutes (%)

1) CCCCC[C@H](O)/C=C/[C@@H]1[C@H]2C/C(=C/CCCC(=O)O)O[C@H]2C[C@H]1O [Sodium salt of prostaglandin I2, reference compound]	0
2) CCCCCC(O)C=CC1C(O)CC2OC(=CCCCC(=O)OCC(=O)OCCCC)CC21 (stereo not shown) [Compound 1]	3
3) CCCCCC(O)C=CC1C(O)CC2OC(=CCCCC(=O)OCOC(=O)C(C)(C)C)CC21 (stereo not shown) [Compound 2, Pivaloyloxymethyl prostaglandin I2 ester]	27
4) CCCCCC(=O)OC(C)OC(=O)CCCC=C1CC2C(CC(O)C2C=CC(O)CCCCC)O1 (stereo not shown) [Compound 3]	48

----------
// reported IC50 per item
Test system: platelet agglutination (PRP, plasma rich in platelet)
Test details: Platelet-agglutination inhibition test (rat PRP, adenosine phosphate, aggregometer)
Format: cell-based, Wistar-strain male rats
Condition label: 1 min, concentration in terms of prostaglandin I2 reducing maximum agglutination rate by 50% relative to control, 1 min at 37° C., 1 mM adenosine phosphate, read-out: ED50 (the source's name)
Structures can show the parent of a compound that is named as a salt.
Measurement name: IC50

1. CCCCCC(=O)OC(C)OC(=O)CCCC=C1CC2C(CC(O)C2C=CC(O)CCCCC)O1 (stereo not shown) [Compound 3]	0.7 µg/mL
2. CCCCC[C@H](O)/C=C/[C@@H]1[C@H]2C/C(=C/CCCC(=O)O)O[C@H]2C[C@H]1O [Sodium salt of prostaglandin I2, reference compound]	0.4 µg/mL
3. CCCCCC(O)C=CC1C(O)CC2OC(=CCCCC(=O)OCOC(=O)C(C)(C)C)CC21 (stereo not shown) [Compound 2, Pivaloyloxymethyl prostaglandin I2 ester]	0.5 µg/mL
4. CCCCCC(O)C=CC1C(O)CC2OC(=CCCCC(=O)OCC(=O)OCCCC)CC21 (stereo not shown) [Compound 1]	4.6 µg/mL
